The reported numbers originate from patent US20250313631A1.

# study.system: T1, recombinant mouse VISTA (His-tagged) (mouse, UniProt Q9D659 33-191)
# T1 construct: also called murine VISTA; mVISTA
# T1 sequence (looked up): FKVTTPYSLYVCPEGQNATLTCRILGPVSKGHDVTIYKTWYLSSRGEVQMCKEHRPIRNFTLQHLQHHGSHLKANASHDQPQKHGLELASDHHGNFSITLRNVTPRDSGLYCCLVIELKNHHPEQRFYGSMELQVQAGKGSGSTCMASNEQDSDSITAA
# assay.name: BLI (Octet), 1:1 global fit, His-tagged mouse VISTA captured
Here the recorded kon is given for each entry.

binder	kon [M⁻¹ s⁻¹]
anti-VISTA clone V4-C1 IgG1 (antibody, V domains shown) VH: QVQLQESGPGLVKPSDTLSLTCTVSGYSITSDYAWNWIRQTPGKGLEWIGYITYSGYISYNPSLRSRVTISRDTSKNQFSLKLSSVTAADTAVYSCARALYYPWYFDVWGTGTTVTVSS VL: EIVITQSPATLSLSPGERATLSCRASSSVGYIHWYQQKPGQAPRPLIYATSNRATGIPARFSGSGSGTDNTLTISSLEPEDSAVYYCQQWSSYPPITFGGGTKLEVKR	243000
anti-VISTA clone V4-C28 IgG1 (antibody, V domains shown) VH: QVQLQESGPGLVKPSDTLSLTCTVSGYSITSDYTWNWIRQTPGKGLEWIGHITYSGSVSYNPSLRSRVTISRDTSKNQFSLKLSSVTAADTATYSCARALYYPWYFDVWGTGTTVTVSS VL: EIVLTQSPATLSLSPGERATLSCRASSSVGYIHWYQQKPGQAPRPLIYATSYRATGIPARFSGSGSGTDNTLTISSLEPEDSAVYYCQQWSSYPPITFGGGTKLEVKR	475000
